The origin of these recorded values is patent US8350027B2.

Measured IC50, listed per entry.
target: NEP enzyme (Homo sapiens); construct: purchased R&D Systems, Minneapolis, Minn; 1182-ZN; experiment: NEP enzyme inhibition assay (fluorogenic peptide substrate); format: biochemical; conditions: values given as lower bounds; * = prodrugs, may not exhibit NEP activity in an in vitro assay; read-out: NEP pIC50 (converted)
Sequence (P08473 52-750 limits assumed): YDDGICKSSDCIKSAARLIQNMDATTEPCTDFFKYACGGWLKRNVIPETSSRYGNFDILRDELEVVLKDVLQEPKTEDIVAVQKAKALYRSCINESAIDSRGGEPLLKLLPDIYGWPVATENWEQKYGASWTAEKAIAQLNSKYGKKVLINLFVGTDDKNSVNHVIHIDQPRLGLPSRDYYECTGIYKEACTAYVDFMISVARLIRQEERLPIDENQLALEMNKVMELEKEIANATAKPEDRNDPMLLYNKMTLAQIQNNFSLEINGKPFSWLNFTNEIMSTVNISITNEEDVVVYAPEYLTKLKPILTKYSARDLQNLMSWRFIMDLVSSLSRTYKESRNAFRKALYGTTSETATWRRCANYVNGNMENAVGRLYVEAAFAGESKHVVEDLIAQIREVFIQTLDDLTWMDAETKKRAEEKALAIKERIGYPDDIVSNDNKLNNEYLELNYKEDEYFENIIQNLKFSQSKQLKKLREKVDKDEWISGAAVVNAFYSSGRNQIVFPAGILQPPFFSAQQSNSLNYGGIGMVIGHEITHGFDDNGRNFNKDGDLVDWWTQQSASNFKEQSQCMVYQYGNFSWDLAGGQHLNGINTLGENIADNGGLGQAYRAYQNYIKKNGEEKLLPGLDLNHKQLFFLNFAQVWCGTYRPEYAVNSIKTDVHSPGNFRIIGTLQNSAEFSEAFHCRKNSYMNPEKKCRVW

Solved entries:
>>> result("CCCc1cc(C(=O)N[C@H](Cc2ccccc2)CN(O)C=O)nn1Cc1ccc(-c2ccccc2S(=O)(=O)NC(C)=O)cc1 [Example 6-13]")
"≤ 0.1 µM"
>>> result("CCCc1cc(C(=O)N[C@@H](CC(=O)O)Cc2ccccc2Cl)nn1Cc1cnc(-c2ccccc2-c2nnn[nH]2)cn1 [Example 17-2]")
"≤ 1 µM"

Next item in the queue.
Missing value: IC50, NEP enzyme (Homo sapiens), entry CCCc1cc(C(=O)N[C@@H](CS)Cc2ccccc2)nn1Cc1ccc(-c2ccccc2-c2nnn[nH]2)cc1 [Example 3-6] . Fill in?
≤ 0.1 µM

====

target: human AT1 receptor (Homo sapiens, UniProt P30556); construct: expressed in transfected cells; host or cells: CHO-K1; assay: AT1 radioligand binding assay (displacement of [Eu]AngII); details: membranes of CHO-K1 cells expressing cloned human AT1 receptor; values given as lower bounds; read-out: AT1 pKi (converted)
Sequence (P30556 whole entry): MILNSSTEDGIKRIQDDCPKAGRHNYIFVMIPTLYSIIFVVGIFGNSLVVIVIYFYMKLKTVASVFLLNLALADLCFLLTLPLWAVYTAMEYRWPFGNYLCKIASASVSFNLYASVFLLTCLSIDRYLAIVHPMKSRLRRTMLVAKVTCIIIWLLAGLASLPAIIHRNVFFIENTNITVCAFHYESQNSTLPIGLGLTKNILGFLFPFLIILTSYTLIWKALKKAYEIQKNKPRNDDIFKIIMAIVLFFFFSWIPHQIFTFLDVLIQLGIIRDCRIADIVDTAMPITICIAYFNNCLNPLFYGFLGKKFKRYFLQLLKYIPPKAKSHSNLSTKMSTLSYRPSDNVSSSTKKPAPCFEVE
MEASURE: Ki

>>> result("CCCc1cc(C(=O)N[C@@H](CC(=O)O)Cc2ccccc2C(F)(F)F)nn1Cc1ccc(-c2ccccc2-c2nnn[nH]2)c(F)c1 [Example 3-19]")
"≤ 100 nM"

Can you look up the measured Ki of CCCc1cc(C(=O)N[C@@H](CC(=O)O)Cc2ccccc2C(F)(F)F)nn1Cc1ccc(-c2ccccc2-c2nnn[nH]2)cc1 [Example 3-36] for me?
≤ 100 nM

Can you look up the measured Ki of CCCc1cc(C(=O)N[C@H](Cc2ccccc2)[C@@H](O)C(=O)O)nn1Cc1cnc(-c2ccccc2S(=O)(=O)NC(C)=O)cn1 [Example 17-5] for me?
≤ 100 nM

Can you look up the measured Ki of CCCc1cc(C(=O)N[C@H](Cc2ccccc2)[C@@H](O)C(=O)O)nn1Cc1ccc(-c2ccccc2S(=O)(=O)NC(C)=O)cc1F [Example 6-14] for me?
≤ 10 nM

====

Measured IC50, listed per entry.
target: NEP enzyme (Homo sapiens); construct: purchased R&D Systems, Minneapolis, Minn; 1182-ZN; assay: NEP enzyme inhibition assay (fluorogenic peptide substrate); format: biochemical; details: values given as lower bounds; * = prodrugs, may not exhibit NEP activity in an in vitro assay; read-out: NEP pIC50 (converted)

Solved entries:
>>> result("CCCc1cc(C(=O)NC(CC(=O)NO)CC(C)C)nn1Cc1ccc(-c2ccccc2S(=O)(=O)NC(C)=O)c(F)c1 (centres unmarked)")
"≤ 0.1 µM"
>>> result("CCCc1cc(C(=O)N[C@@H](CC(=O)O)Cc2ccccc2Cl)nn1Cc1ccc(-c2ccccc2S(=O)(=O)NC(C)=O)nc1")
"≤ 1 µM"
>>> result("CCCCc1cc(C(=O)N[C@@H](CS)Cc2ccccc2)nn1Cc1ccc(-c2ccccc2C(=O)O)cc1F")
"≤ 0.1 µM"

Can you look up the measured IC50 of `CCCc1cc(C(=O)N[C@@H](CC(=O)O)Cc2ccccc2)nn1Cc1ccc(-c2ccccc2S(=O)(=O)NC(C)=O)cc1` for me?
≤ 10 µM

Can you look up the measured IC50 of `CCCc1cc(C(=O)N[C@@H](CS)CC(C)C)nn1Cc1ccc(-c2ccccc2C(=O)O)cc1F` for me?
≤ 0.1 µM
